study.target: human FLAP (Homo sapiens (Human))
test.details: FLAP binding assay (HTRF format)
experimental.context: human FLAP-containing Sf-9 membranes, 25 nM HTRF ligand, 2 h; average of runs; read-out: FLAP Binding wild type HTRF Ki
pKi: −log10 of the molar value. Where a name gives a salt, the structure may show the parent alone.
measured.property: pKi

compound="Cc1ccc(COc2ccc3nc([C@H]4CCCC[C@H]4C(=O)O)n(Cc4ccc(C#N)cc4)c3c2)nc1 (stereo in doubt)" experimental_value=8.00

(I) Cn1ccc(COc2ccc3nc([C@@H]4CCCC[C@@H]4C(=O)O)n(Cc4ccc(OC(F)(F)F)cc4Cl)c3c2)n1 (racemic) [Example 103, HCl salt]
(II) Cc1cnc(COc2ccc3nc(CC(C)(C)C(=O)O)n(Cc4ccc(N5CC(C(F)(F)F)C5)cc4F)c3c2)c(F)c1
(III) Cc1cc(Cn2c([C@@H]3CCCC[C@@H]3C(=O)O)nc3ccc(OCc4ccn(C)n4)cc32)ccc1OC(F)(F)F (racemic) [Example 106, HCl salt]
Ranking field: pKi; order: falling. Would you mind listing the labels in the order requested? III, II, I
(III: 8.27, II: 7.89, I: 7.52)

###

study.target: human FLAP (Homo sapiens (Human), UniProt P20292)
Sequence (P20292 whole entry): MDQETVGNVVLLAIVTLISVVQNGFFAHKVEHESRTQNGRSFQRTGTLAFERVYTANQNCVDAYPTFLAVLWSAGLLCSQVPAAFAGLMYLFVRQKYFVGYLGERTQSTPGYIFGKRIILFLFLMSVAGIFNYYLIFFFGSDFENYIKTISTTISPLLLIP
test.details: FLAP binding assay (HTRF format)
experimental.context: human FLAP-containing Sf-9 membranes, 25 nM HTRF ligand, 2 h; average of runs; read-out: FLAP Binding wild type HTRF Ki
Counter-ions that a name gives are not always drawn.
measured.property: Ki

compound=CCC(CC)(Cc1nc2ccc(OCc3ccn(C)n3)cc2n1Cc1ccc(OC(F)(F)F)cc1C)C(=O)O measured_property=Ki experimental_value="~250 nM"
compound="Cn1ccc(COc2ccc3nc([C@@H]4[C@H](C(=O)O)C4(C)C)n(Cc4ccc(Br)cc4)c3c2)n1 (racemic)" measured_property=Ki experimental_value="~500 nM"

Below: the item to evaluate.
Supply reported Ki belonging to this compound: Cn1ccc(COc2ccc3nc([C@@H]4CCCC[C@@H]4C(=O)O)n(Cc4ccc(C#N)cc4)c3c2)n1 (racemic) [Example 47, TFA salt] ~490 nM

###

study.target: human FLAP (Homo sapiens (Human))
test.details: FLAP binding assay (HTRF format)
experimental.context: human FLAP-containing Sf-9 membranes, 25 nM HTRF ligand, 2 h; average of runs; read-out: FLAP Binding wild type HTRF Ki
Description: The ability of the compounds of the present invention to treat a FLAP-mediated disease and/or disorder, or associated symptoms or complications thereof, was determined using the following procedures. […] The assay below is used to test the modulatory activity of compounds against FLAP. […] The FLAP binding assay is performed in HTRF format (homogeneous time resolved fluorescence). […] The reaction is allowed to proceed for two hours after which the plate is read on an Envision plate reader in HTRF mode. […]
Where a name gives a salt, the structure may show the parent alone.
measured.property: Ki

compound="Cn1ccc(COc2ccc3nc([C@@H]4CCCC[C@@H]4C(=O)O)n(Cc4ccc(OC(F)(F)F)cc4F)c3c2)n1 (stereo in doubt) [Example 52]" experimental_value="> 10000 nM"

Consider the compound CCC(CC)(Cc1nc2ccc(OCc3ccc(C)cn3)cc2n1Cc1ccc(C#N)cc1)C(=O)O [Example 19, TFA salt] and give its recorded Ki. ~750 nM

Look up and state reported Ki for Cc1cccc(COc2ccc3nc([C@@H]4[C@H](C(=O)O)C4(C)C)n(Cc4ccc(Br)cc4)c3c2)n1 (racemic) ~1500 nM

###

Catalogue of pKi readings, one per entry.
study.target: UniProt:P20292
test.details: FLAP binding assay (HTRF format)
experimental.context: human FLAP-containing Sf-9 membranes, 25 nM HTRF ligand, 2 h; average of runs; read-out: FLAP Binding wild type HTRF Ki
pKi: −log10 of the molar value. Where a name gives a salt, the structure may show the parent alone.

Illustrative cases are given below, each with its answer.
molecule="Cc1ccc(COc2ccc3nc([C@@H]4CCCC[C@@H]4C(=O)O)n(Cc4ccc(C#N)cc4)c3c2)nc1 (stereo in doubt) [Example 38]" experimental_value="< 5.00"
molecule="Cn1ccc(COc2ccc3nc(C4CCCC[C@@H]4C(=O)O)n(Cc4ccc(C#N)cc4)c3c2)n1 (mixture of isomers) [Example 48, TFA salt]" experimental_value=~6.12

Consider the molecule CCC(CC)(Cc1nc2ccc(OCc3ccn(C)n3)cc2n1Cc1ccc(N2CCCCC2)cc1)C(=O)O [Example 43] . State its measured pKi. ~6.03
